test system: MCF7 cells (breast tumor cells) WT; assay: Test B: cell proliferation/viability assay (CellTiter-Glo) on MCF7 WT; format: cell-based; details: Homo sapiens, MCF7, 168 h, 7 days of compound exposure
MEASUREMENT_NAME: log10 IC50 (log10 of the value in pM)

[[record]]
chemical_smiles = "Oc1ccc2c(c1F)OCCC(c1ccc3[nH]ccc3c1)=C2c1ccc(O[C@H]2CCN(CCCF)C2)cc1"
obs_value = 3.70

[[record]]
chemical_smiles = "Oc1ccc2c(c1)CCCC(c1ccc(OC(F)(F)F)cc1)=C2c1ccc(O[C@H]2CCN(CCCF)C2)nc1"
obs_value = 2.00

[[record]]
chemical_smiles = "COCCOc1ccc(C2=C(c3ccc(O[C@H]4CCN(CCCF)C4)cc3)c3ccc(O)cc3OCC2)cc1"
obs_value = 3.78

[[record]]
chemical_smiles = "COc1ccc(C2=C(c3ccc(O[C@H]4CCN(CCCF)C4)cc3)c3ccc(O)cc3SCC2)c(F)c1"
obs_value = 2.30

[[record]]
chemical_smiles = "Cc1ccc(C2=C(c3ccc(O[C@H]4CCN(CCCF)C4)cc3)c3ccc(O)cc3SC2)c(F)c1"
obs_value = 2.95

[[record]]
chemical_smiles = "CC(C)Oc1ccc(C2=C(c3ccc(O[C@H]4CCN(CCCF)C4)cc3)c3ccc(O)cc3OCC2)cc1F"
obs_value = 3.00

[[record]]
chemical_smiles = "CCOc1ccc(C2=C(c3ccc(O[C@H]4CCN(CCCF)C4)cc3)c3ccc(O)cc3SCC2)c(F)c1F"
obs_value = 2.00

[[record]]
chemical_smiles = "Cc1ccc(C2=C(c3ccc(O[C@H]4CCN(CCCF)C4)cc3)c3ccc(C(=O)O)cc3SC2)c(F)c1"
obs_value = 4.20

[[record]]
chemical_smiles = "Oc1ccc2c(c1)SCCC(c1ccc(OC(F)F)c(F)c1)=C2c1ccc(O[C@H]2CCN(CCCF)C2)cc1"
obs_value = 2.48

[[record]]
chemical_smiles = "Oc1ccc2c(c1)CCCC(c1ccc(Cl)cc1Cl)=C2c1ccc(N[C@H]2CCN(CCCF)C2)cc1"
obs_value = 2.60

[[record]]
chemical_smiles = "CCOc1ccc(C2=C(c3ccc(O[C@H]4CCN(CCCF)C4)cc3)c3ccc(O)cc3SC2)c(C)c1"
obs_value = 2.60

[[record]]
chemical_smiles = "Oc1ccc2c(c1)C(c1ccc(O[C@H]3CCN(CCCF)C3)cc1)=C(c1ccc(OC(F)(F)F)cc1F)CC2"
obs_value = 4.93

[[record]]
chemical_smiles = "Oc1cc2c(cc1F)C(c1ccc(O[C@H]3CCN(CCCF)C3)cc1)=C(c1ccc3c(c1)CCN3)CCO2"
obs_value = 3.90

[[record]]
chemical_smiles = "Oc1ccc2c(c1)CCC(c1ccc(Cl)cc1Cl)=C2c1ccc(O[C@H]2CCN(CCCF)C2)cc1"
obs_value = 2.70

[[record]]
chemical_smiles = "Oc1ccc2c(c1)SCCC(c1ccc3c(c1)CCN3)=C2c1ccc(O[C@H]2CCN(CCCF)C2)cc1"
obs_value = 3.48


Ref: patent US11149031B2
